# testTarget: Fructose-bisphosphate aldolase (Mycobacterium tuberculosis (strain ATCC 25618 / H37Rv))
# testDetails: Mtb FBA enzyme inhibitors, primary screen, biochemical, fluorescence, strain H37Rv (AID 588726);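 also: 0% = vehicle and 100% = reference inhibitor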
# experimentalSetup: purified M. tuberculosis FBA, fluorescence read-out, at 1 µM, hits give high values
Out of some 360,000 compounds screened, about 8,200 (2.3%) were called active. The list comes from a sample in which actives are over-represented; it also holds close analogues and randomly drawn compounds.
Give measured inhibition for each item. Keep answers brief.
Answer format: numeric, % implied, no suffix.

QUERY: Please give the measured inhibition for this molecule: "C=CCc1c(C)nc2cc(-c3ccccc3)[nH]n2c1=O"
RESULT: 33.2

QUERY: Please give the measured inhibition for this molecule: "CCc1c(C)nc2cc(C)[nH]n2c1=O"
RESULT: 27.9

QUERY: Please give the measured inhibition for this molecule: "O=C(NCc1cccnc1)Nc1cccc(NC(=O)NCc2cccnc2)c1F"
RESULT: 2.23

QUERY: Please give the measured inhibition for this molecule: "CCc1c(C)nc2cc(-c3cccs3)[nH]n2c1=O"
RESULT: 27.4

QUERY: Please give the measured inhibition for this molecule: "Cc1cc(-c2ccccc2)n2nc(C)c(-c3ccccc3)c2n1"
RESULT: 4.02

QUERY: Please give the measured inhibition for this molecule: CCC(C)n1[nH]c(=O)c2c(C)cc(C)nc21 (stereo not drawn)
RESULT: 2.95

QUERY: Please give the measured inhibition for this molecule: C/C=C(/C)C(=O)OC1Cc2c(ccc3ccc(=O)oc23)OC1(C)C (stereo not drawn)
RESULT: 26.4

QUERY: Please give the measured inhibition for this molecule: "COc1ccc(-c2cc(C)nc3nc(N)nn23)cc1"
RESULT: 124
